Reported Inhibition is given for each of the following molecules.
- System: Cryptococcus neoformans
- SETTINGS: Concentration 32 ug.mL-1; ASSAY_TEST Inhibition of Fungal Growth; detection method Resazurin; Absorption (OD600-OD570); plate type 384well; NBS; CORNING #3640
- Description: Antifungal activity against Cryptococcus neoformans H99 ATCC 208821 (CO-ADD:FG_002); MIC in YNB media using NBS plates, by Resazurin OD(600-570)
Measured potencies and affinities stand elsewhere.
READOUT_KIND: Inhibition (%)

> print(dat)
                                smiles.code  readout.kind  value.observed
1  COc1ccc(NC(=O)Cn2nc3ccc(Sc4ccccc4)nn3c2=O)cc1    Inhibition           -9.77
2  CC(C)c1nnc2c(=O)n(CC(=O)Nc3ccc4c(c3)OCO4)c3ccccc3n12    Inhibition           -25.4
3  N#CCn1nc2n(Cc3ccccc3)c(=O)c3ccccc3n2c1=O    Inhibition           -7.48
4  Cc1cccc(NC(=O)Cn2nc3ccc(-c4ccc(C)c(C)c4)nn3c2=O)c1    Inhibition          -12.34
5  Cc1cc2nn(CC(=O)Nc3cc(F)ccc3F)c(=O)n2c(Nc2ccc(C)c(F)c2)n1    Inhibition           -8.46
6  CCN(CCCNC(=O)CCc1nnc2ccc(-c3ccccc3)nn12)c1ccccc1    Inhibition           -0.38

---

Quick reference for Inhibition among some compounds
- Tested on: Candida albicans
- SETTINGS: Concentration 32 ug.mL-1; ASSAY_TEST Inhibition of Fungal Growth; detection method Absorption (OD530)
- Description: Antifungal activity against Candida albicans ATCC 90028 (CO-ADD:FG_001); MIC in YNB media using NBS plates, by OD630
Potency and affinity values are given separately.
READOUT_KIND: Inhibition (%)

> print(dat)
                                smiles.code  experimental.system  readout.kind  value.observed
1  COc1ccc(NC(=O)Cn2nc3ccc(-c4ccccc4)nn3c2=O)cc1OC     Candida albicans    Inhibition            3.57
2  Cc1ccc(CNC(=O)Cn2nc3c(Oc4ccccc4C)nccn3c2=O)cc1     Candida albicans    Inhibition            1.06
3  COc1ccc(NC(=O)Cn2nc3c4cc(-c5ccc(OC)cc5)nn4ccn3c2=O)cc1     Candida albicans    Inhibition            2.73
4  Cc1ccc(Oc2nccn3c(=O)n(CC(=O)Nc4ccccc4C(F)(F)F)nc23)cc1     Candida albicans    Inhibition             0.6
5  CC(C)(C)Sc1ccc2nn(CC(=O)Nc3ccccc3C(F)(F)F)c(=O)n2n1     Candida albicans    Inhibition            0.56

---

- Test system: Candida albicans
- SETTINGS: Concentration 32 ug.mL-1; ASSAY_TEST Inhibition of Fungal Growth; detection method Absorption (OD530)
Results with a measured potency or affinity are listed apart.
READOUT_KIND: Inhibition (%)

> print(dat)
                                smiles.code  value.observed
1  CCc1cccc(C)c1NC(=O)Cn1nc2ccc(SCc3ccc(Cl)cc3)nn2c1=O           52.47
2  Cc1nnc2ccc(S(=O)(=O)N(Cc3cccc(F)c3)c3cc(F)cc(F)c3)cn12           -1.03
3  CCc1cccc(NC(=O)Cn2nc3c(SCc4ccc(Cl)cc4)nccn3c2=O)c1           22.52
4  CCCCOc1ccc(-c2cc3c4nnc(SCC(=O)Nc5cccc(C#N)c5)n4ccn3n2)cc1            7.68
5  COC(=O)c1ccc(NC(=O)Cn2nc3ccc(SCc4ccc(Cl)cc4)nn3c2=O)cc1           46.24

---

Recorded Inhibition, one value per entry.
- Tested on: Klebsiella pneumoniae
- SETTINGS: Concentration 32 ug.mL-1;; ASSAY_TEST Inhibition of Bacterial Growth; detection method Absorption (OD600); MEDIA CAMHB; plate type 384well; NBS; CORNING #3640; time 18 hr
- Description: Antibacterial activity against Klebsiella pneumoniae MDR ATCC 70063 (CO-ADD:GN_003); MIC in CAMBH media using NBS plates, by OD(600)
Measured potencies and affinities stand elsewhere.
READOUT_KIND: Inhibition (%)

> print(dat)
                                smiles.code  value.observed
1  Cc1nnc2ccc(S(=O)(=O)N(Cc3cccc(F)c3)c3ccc(F)c(F)c3)cn12            2.49
2  COC(=O)c1cccc(NC(=O)Cn2nc3c(SCc4ccc(Cl)cc4)nccn3c2=O)c1            6.22
3  O=C(Cn1nc2c(SC3CCCCC3)nccn2c1=O)Nc1ccccc1F            4.58
4  CCc1ccccc1Sc1nccn2c(=O)n(CC(=O)Nc3ccc(OC)cc3)nc12            0.32
5  Cc1cc(C)cc(Oc2nc3ccccc3n3c(=O)n(CC(=O)Nc4ccc5c(c4)OCO5)nc23)c1             6.8

---

- Tested on: Klebsiella pneumoniae
- SETTINGS: Concentration 32 ug.mL-1;; ASSAY_TEST Inhibition of Bacterial Growth; detection method Absorption (OD600); MEDIA CAMHB; plate type 384well; NBS; CORNING #3640; time 18 hr
Results with a measured potency or affinity are listed apart.
READOUT_KIND: Inhibition

> print(dat)
                                 smiles.code  value.observed
 1  Cc1nnc2c(=O)n(CC(=O)Nc3ccc(F)cc3)c3ccccc3n12          10.46%
 2  CCc1cccc(NC(=O)CSc2nnc3c(=O)n(-c4cccc(OC)c4)ccn23)c1           7.34%
 3  CCc1nnc2c(S(=O)(=O)N(Cc3ccc(F)cc3)c3ccc(Cl)cc3)cccn12           7.23%
 4  Cc1cccc(-c2nc(CSc3nc4ccccc4n4c(C(C)C)nnc34)c(C)o2)c1           12.8%
 5  Cc1nnc2ccc(S(=O)(=O)N(Cc3ccccc3F)c3ccc(F)cc3)cn12           5.62%
 6  Cc1cc(C)cc(N(Cc2cc(F)cc(F)c2)S(=O)(=O)c2cccn3c(C)nnc23)c1           11.7%
 7  N#Cc1cccc(NC(=O)CSc2nnc3c4cc(-c5ccccc5)nn4ccn23)c1           9.61%
 8  CCc1ccc(NC(=O)Cn2c(=O)c3nnc(C(C)C)n3c3ccccc32)cc1           8.25%
 9  Cc1ccc(Sc2nccn3c(=O)n(CC(=O)N4CCN(c5ccccc5F)CC4)nc23)c(C)c1           9.62%
10  CCCCc1ccc(NC(=O)Cn2nc3c(Sc4ccccc4)nccn3c2=O)cc1           5.15%

---

Listed next: entries and their corresponding Inhibition.
- Tested on: Klebsiella pneumoniae
- SETTINGS: Concentration 32 ug.mL-1;; ASSAY_TEST Inhibition of Bacterial Growth; detection method Absorption (OD600); MEDIA CAMHB; plate type 384well; NBS; CORNING #3640; time 18 hr
Results with a measured potency or affinity are listed apart.
READOUT_KIND: Inhibition (%)

> print(dat)
                                smiles.code  value.observed
1  COc1cccc(NC(=O)Cn2c(=O)c3nnc(C(C)C)n3c3ccccc32)c1           16.14
2  CCc1nnc2ccc(S(=O)(=O)N(Cc3ccccc3)c3ccccc3)cn12            4.93
3  Cc1ccc(C)c(-c2cc3c4nnc(CCC(=O)NCCc5ccc(Cl)cc5)n4ccn3n2)c1           12.88
4  Cc1cccc(Sc2nccn3c(=O)n(CC(=O)N4CCN(c5ccc(F)cc5)CC4)nc23)c1            -8.7
5  COc1ccc(N(Cc2cccc(C)c2)S(=O)(=O)c2ccc3nnc(C)n3c2)cc1            7.11

---

- Test system: Klebsiella pneumoniae
- SETTINGS: Concentration 32 ug.mL-1;; ASSAY_TEST Inhibition of Bacterial Growth; detection method Absorption (OD600); MEDIA CAMHB; plate type 384well; NBS; CORNING #3640; time 18 hr
Results with a measured potency or affinity are listed apart.
READOUT_KIND: Inhibition (%)

> print(dat)
                                    compound  readout.kind  result.units  value.observed
 1  CC(C)(C)S(=O)(=O)c1ccc2nn(CC(=O)Nc3ccc4c(c3)OCO4)c(=O)n2n1    Inhibition             %            2.44
 2  COc1cccc(NC(=O)Cn2nc3c4cc(-c5ccc(Cl)cc5)nn4ccn3c2=O)c1    Inhibition             %            8.34
 3  Cc1ccc(Oc2nccn3c(=O)n(CC(=O)Nc4ccc(Br)cc4)nc23)cc1    Inhibition             %            6.74
 4  Cc1ccc(NC(=O)CSc2nc3ccccc3n3cnnc23)c(Br)c1    Inhibition             %            0.14
 5  COC(=O)c1ccc(CN(c2cccc(C)c2)S(=O)(=O)c2cccn3c(C)nnc23)o1    Inhibition             %            9.19
 6  O=c1c2nn(Cc3cccc(F)c3)c(=O)n2ccn1-c1ccccc1    Inhibition             %             3.5
 7  CC(C)Cn1c(=O)c2sccc2n2c(=O)n(CC(=O)NC(C)C)nc12    Inhibition             %            6.06
 8  CC(C)CCNC(=O)CSc1nnc2c(=O)n(Cc3ccc(F)cc3)ccn12    Inhibition             %            4.54
 9  O=C(Cn1nc2c(SC3CCCCC3)nccn2c1=O)Nc1cccc(Br)c1    Inhibition             %           -4.59
10  CC(C)CCn1c(=O)c2sccc2n2c(=O)n(Cc3c(F)cccc3Cl)nc12    Inhibition             %           12.18
11  Cc1oc(-c2cccc(Cl)c2)nc1CSc1nc2ccccc2n2c(C)nnc12    Inhibition             %            5.28
12  CCc1ccccc1NC(=O)Cn1c(=O)c2nnc(C(C)C)n2c2ccccc21    Inhibition             %           -2.33
13  N#CCn1nc2n(CCC(=O)NC3CCCCC3)c(=O)c3ccccc3n2c1=O    Inhibition             %            0.53
14  Cc1ccc(-c2cc3c4nn(CC(=O)Nc5ccc(F)cc5Cl)c(=O)n4ccn3n2)cc1    Inhibition             %             2.7
15  COc1ccc(CNC(=O)Cn2nc3c4cc(-c5ccc(C)c(C)c5)nn4ccn3c2=O)cc1    Inhibition             %            7.73
16  Cc1cccc(NC(=O)CSc2nnc3c(=O)n(-c4ccccc4)ccn23)c1    Inhibition             %            3.26
17  O=C(Cn1nc2c3sc(N4CCCC4)nc3ncn2c1=O)Nc1ccccc1Cl    Inhibition             %            7.88
18  Cc1nnc2ccc(S(=O)(=O)N(Cc3ccc(F)cc3)c3ccc4c(c3)OCO4)cn12    Inhibition             %           13.79
19  CCC(Sc1nnc2c(=O)n(-c3cccc(OC)c3)ccn12)C(=O)Nc1cc(C)ccc1C (stereo unspecified)    Inhibition             %           11.08
20  COc1ccc(-n2ccn3c(=O)n(Cc4ccccc4Cl)nc3c2=O)cc1Cl    Inhibition             %             3.5
21  Cc1ccc(S(=O)(=O)Nc2ccc3nnc(-c4ccccc4)n3n2)cc1C    Inhibition             %            0.88
